Origin of the recorded values: patent US9125922B2

TARGET_OR_TEST_SYSTEM: UniProt P0C1S7
Sequence (P0C1S7 whole entry): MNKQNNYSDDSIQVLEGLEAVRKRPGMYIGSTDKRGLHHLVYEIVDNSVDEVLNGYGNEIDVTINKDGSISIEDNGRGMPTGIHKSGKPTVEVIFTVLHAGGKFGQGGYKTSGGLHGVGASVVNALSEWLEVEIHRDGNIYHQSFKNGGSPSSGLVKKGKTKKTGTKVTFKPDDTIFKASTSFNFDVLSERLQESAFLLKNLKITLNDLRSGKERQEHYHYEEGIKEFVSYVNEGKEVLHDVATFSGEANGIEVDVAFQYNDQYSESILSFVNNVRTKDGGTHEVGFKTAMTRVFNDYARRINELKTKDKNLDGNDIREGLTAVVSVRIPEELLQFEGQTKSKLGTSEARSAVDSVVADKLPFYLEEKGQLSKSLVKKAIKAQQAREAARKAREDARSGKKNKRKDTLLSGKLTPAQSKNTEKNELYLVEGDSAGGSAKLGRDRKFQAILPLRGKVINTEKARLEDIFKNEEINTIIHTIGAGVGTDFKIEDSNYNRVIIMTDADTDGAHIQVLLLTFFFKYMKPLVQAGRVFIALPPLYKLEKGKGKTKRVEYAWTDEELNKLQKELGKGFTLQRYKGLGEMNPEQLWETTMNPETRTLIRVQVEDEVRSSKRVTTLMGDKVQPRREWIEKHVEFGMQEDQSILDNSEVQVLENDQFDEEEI
Sequence (P0C1U9 whole entry partner): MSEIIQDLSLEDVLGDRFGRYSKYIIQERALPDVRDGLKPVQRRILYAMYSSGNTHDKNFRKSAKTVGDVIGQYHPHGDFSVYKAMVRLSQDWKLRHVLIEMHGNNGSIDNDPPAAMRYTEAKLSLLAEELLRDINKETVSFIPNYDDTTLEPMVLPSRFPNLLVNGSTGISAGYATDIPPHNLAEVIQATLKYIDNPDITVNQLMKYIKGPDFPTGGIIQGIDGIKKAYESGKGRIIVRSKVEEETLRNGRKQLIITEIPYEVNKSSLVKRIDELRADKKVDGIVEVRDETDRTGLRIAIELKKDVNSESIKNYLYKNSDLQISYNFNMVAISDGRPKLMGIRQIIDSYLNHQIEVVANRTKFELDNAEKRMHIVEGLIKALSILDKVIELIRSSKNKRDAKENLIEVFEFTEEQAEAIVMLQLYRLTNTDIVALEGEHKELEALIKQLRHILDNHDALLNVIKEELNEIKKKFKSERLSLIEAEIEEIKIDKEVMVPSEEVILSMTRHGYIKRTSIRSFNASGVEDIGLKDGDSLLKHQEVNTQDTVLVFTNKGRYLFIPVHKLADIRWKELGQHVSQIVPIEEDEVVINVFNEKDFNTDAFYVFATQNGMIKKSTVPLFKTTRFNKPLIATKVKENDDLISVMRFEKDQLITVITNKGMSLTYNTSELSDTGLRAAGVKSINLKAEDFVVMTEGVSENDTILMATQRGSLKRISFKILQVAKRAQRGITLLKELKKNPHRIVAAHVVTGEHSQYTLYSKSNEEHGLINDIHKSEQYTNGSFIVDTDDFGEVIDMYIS
RUN_DESCRIPTION: DNA Topo IV ATPase Assay
Format: biochemical
APPLIED_CONDITIONS: coupled ATPase assay, 30° C., 64 nM TopoIV, Morrison Equation fit; read-out: Ki, Inhibition of S. aureus DNA Topo IV
QUANTITY: Ki (nM)
Quick note: give the figure in nM, leave out the unit.

Reported Ki of CCNC(=O)Nc1nc2cc(-c3cnc(C(C)(C)OP(=O)(O)OCCN4CCOCC4)nc3)c(F)c([C@H]3CCCO3)c2[nH]1 : 80

Reported Ki of CCNC(=O)Nc1nc2cc(-c3cnc(C(C)(C)OP(=O)(O)OCCOCCOC)nc3)c(F)c([C@H]3CCCO3)c2[nH]1 [Compound X, phosphate] : 45

Reported Ki of CCCCCCCCCCCCCCCCOP(=O)(O)OC(C)(C)c1ncc(-c2cc3nc(NC(=O)NCC)[nH]c3c([C@H]3CCCO3)c2F)cn1 [Compound Y, phosphate] : 24
